Cited source for all entries: ChEMBL document CHEMBL1201862

# Tested on: IGROV-1
# Assay comment: NCI tumour cell line growth inhibition, 48 h
Active and inactive are the calls of the source. Cut-off read from the data, not from the text of the source: active = GI50 up to about 1.1 µM and inactive = higher.
Response enum: active, inactive

INSERT INTO results (chemical_smiles, study_system, label) VALUES
  ('NN(CC(=O)O)CC(=O)O', 'IGROV-1', 'inactive'),
  ('CC(=O)O[C@H]1C[C@H]2C(=S)Nc3ccccc3C(=S)N2C1', 'IGROV-1', 'inactive');

How was NC(=S)N/N=C\c1nccc2ccccc12 classified in this test? active

Each molecule tested received a call. Report the one for O=c1sc(-c2nc3ccccc3[nH]2)c(/N=C/c2ccccc2)n1-c1ccccc1 . inactive

What did the test return for CCOC(=O)c1nnsc1NN ? inactive

Write down the call the test reported for this molecule. Item: CC(C)(Oc1ccc(C(=O)c2ccc(Cl)cc2)cc1Cl)C(=O)Nc1c(Cl)cccc1Cl inactive
